Where these numbers come from: patent US20110262445A1

TEST SYSTEM: T1, human IL-23 (human, UniProt P29460 23-328; Q9NPF7 20-189)
T1 construct: Recombinant (Ebioscience); HIS-tagged in flow cytometry, biotinylated in some assays; also called hIL-23; rhIL-23
T1 sequence 1: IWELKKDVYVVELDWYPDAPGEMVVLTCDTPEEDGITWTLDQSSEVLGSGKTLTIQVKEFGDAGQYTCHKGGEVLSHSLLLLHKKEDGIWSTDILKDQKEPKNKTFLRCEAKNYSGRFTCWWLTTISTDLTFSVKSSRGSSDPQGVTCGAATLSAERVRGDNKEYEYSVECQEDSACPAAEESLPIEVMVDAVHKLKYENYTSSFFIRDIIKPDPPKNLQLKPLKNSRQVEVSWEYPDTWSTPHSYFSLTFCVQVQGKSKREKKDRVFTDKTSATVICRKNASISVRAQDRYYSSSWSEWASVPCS
T1 sequence 2: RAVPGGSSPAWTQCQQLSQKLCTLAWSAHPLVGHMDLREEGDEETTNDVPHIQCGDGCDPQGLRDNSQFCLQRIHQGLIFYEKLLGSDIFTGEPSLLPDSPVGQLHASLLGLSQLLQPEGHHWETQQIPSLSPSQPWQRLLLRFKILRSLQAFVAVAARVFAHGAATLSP
ASSAY METHOD TEXT: SPR, IgG on Protein A
PROPERTY: koff (s⁻¹)

binder="Antibody 136 (antibody, human IgG1, kappa, V domains shown, Humanized PMA204 (1RZ7 framework)) VH: EVQLVQSGAEVKKPGATVKISCKASGYTFSDYYLHWVRQAPEKGLEWMGWIDPENGDTEYAPKFQGRVTITADTSTDTGYLELSSLRSEDTAVYYCAANKELRYFDVWGQGTLVTVSS VL: DIQMTQSPSSVSASVGDRVTITCRASQSISINLHWYQQKPGKAPKLLIYFASQSISGVPSRFSGSGSGTDFSLTINSLQTEDFATYYCQQSNSFPLTFGGGTKVEIKR" data_value=0.000795
binder="Antibody 192 (antibody, human IgG1, kappa, V domains shown) VH: QVQLVQSGAEVKKPGASVKVSCKASGYTLTDYYLHWVRQAPGQGLEWMGWIDPENGDTEYAPKFQGRVTMTTDTSTSTAYMELRSLRSDDTAVYYCAANKELRYFDVWGQGTMVTVSS VL: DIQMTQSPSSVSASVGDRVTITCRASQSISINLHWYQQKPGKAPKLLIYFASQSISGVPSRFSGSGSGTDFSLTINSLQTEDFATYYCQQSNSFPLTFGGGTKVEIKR" data_value=0.000211
binder="Antibody 194 (antibody, human IgG1, kappa, V domains shown) VH: QVQLVQSGAEVKKPGASVKVSCKASGYTLTDYYLHWVRQAPGQGLEWMGWIDPENGDTESAPKFQGRVTMTTDTSTSTAYMELRSLRSDDTAVYYCAANKELRYFDVWGQGTMVTVSS VL: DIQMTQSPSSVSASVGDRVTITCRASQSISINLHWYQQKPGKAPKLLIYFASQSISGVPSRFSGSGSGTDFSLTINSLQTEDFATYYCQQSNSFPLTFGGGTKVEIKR" data_value=0.000122
binder="Antibody 190 (antibody, human IgG1, kappa, V domains shown) VH: QVQLVQSGAEVKKPGASVKVSCKASGYTFTDYYLHWVRQAPGQGLEWMGWIDPENGDTEYAPKFQGRVTMTTDTSTSTAYMELRSLRSDDTAVYYCNANKELRYFDVWGQGTMVTVSS VL: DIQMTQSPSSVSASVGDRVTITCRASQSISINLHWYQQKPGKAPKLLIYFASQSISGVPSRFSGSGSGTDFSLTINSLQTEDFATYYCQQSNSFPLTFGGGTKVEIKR" data_value=0.000609
